Please go through the items and note down their Plant response rating, Field Bindweed.
- System: field bindweed (Convolvulus arvensis)
- ASSAY: Test E greenhouse herbicide test, pre- and postemergence
- Assay type: in vivo
- SETTINGS: Postemergence, 31 g ai/ha; visual, scale 0 no effect to 100 complete control
Please reply with the number alone, leaving off any unit.

response.value for `CCc1sc2c(C)cc(C)cc2c1-c1c(O)c(C)nn(C)c1=O` (field: Plant response rating, Field Bindweed) = 85

// recorded Plant response rating, Field Bindweed for `CCCC(=O)Oc1c(C)nn(C)c(=O)c1-c1c(C)sc2ccc(C)cc12` : 80

So for `Cc1cc(C)c2sc(C)c(-c3c(O)c(C)nn(C)c3=O)c2c1` , the logged Plant response rating, Field Bindweed turned out to be 60

Kindly note the recorded Plant response rating, Field Bindweed for `CC(=O)Oc1c(C)nn(C)c(=O)c1-c1c(C)cc(C)c2ccccc12` , which is 60

The recorded Plant response rating, Field Bindweed for `Cn1nc(Br)c(O)c(-c2cccc3ccccc23)c1=O` is 75

# Plant response rating, Field Bindweed of `Cc1ccc2sc(Br)c(-c3c(O)c(C)nn(C)c3=O)c2c1` = 80

Record `Cc1nn(C)c(=O)c(-c2ccc(F)c3ccccc23)c1O` . Reported Plant response rating, Field Bindweed: 80
